Hello, the source for this data is patent US20250188057A1, in case you need it.

# Tgt: glucosylceramide synthase (GCS) (Homo sapiens (Human))
# Sequence (Q16739 whole entry): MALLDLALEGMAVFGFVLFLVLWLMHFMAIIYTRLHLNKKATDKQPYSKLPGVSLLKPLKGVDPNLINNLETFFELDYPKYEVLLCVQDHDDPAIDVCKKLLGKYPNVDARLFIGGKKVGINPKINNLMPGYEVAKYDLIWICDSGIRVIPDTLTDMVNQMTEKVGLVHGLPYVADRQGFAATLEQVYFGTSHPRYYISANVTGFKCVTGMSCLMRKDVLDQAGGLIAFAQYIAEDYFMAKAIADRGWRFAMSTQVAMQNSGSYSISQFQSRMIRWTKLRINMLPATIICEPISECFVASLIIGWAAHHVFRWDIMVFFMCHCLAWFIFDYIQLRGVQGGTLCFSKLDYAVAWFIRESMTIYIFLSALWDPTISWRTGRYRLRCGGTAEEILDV
# Assay: UDP-Glo glucosylceramide synthase biochemical assay
# Condition description: endogenous GCS in Golgi preparations isolated from human A375 malignant melanoma skin cells; UDP detection by luminescence
# Source text: A UDP-Glo™ glucosylceramide synthase biochemical assay was utilized to evaluate the effect of test compounds on the activity of endogenous levels of GCS enzyme contained within Golgi preparations isolated from human A375 malignant melanoma skin cells. […] Using Promega's UDP-Glo™ Glycosyltransferase assay kit (Promega Corporation, Madison, WI, USA (Promega)), GCS activity was indirectly measured by detecting the amount of UDP produced. […] The generated light was detected using a luminometer. […]
pIC50: −log10 of the molar value.
Result type: pIC50

The cases that follow already have their pIC50 on record.
molecule="Cc1nc2c(s1)CCCC2Nc1nc(C2CC2)nc(Cl)c1CO (single isomer, unassigned) [Compound 110]" tgt="glucosylceramide synthase (GCS) (Homo sapiens (Human))" result_type=pIC50 assay_result=6.58
molecule=C=Cc1cc(N2CC(c3nc4ccccc4n3C)C2)nc(C)n1 tgt="glucosylceramide synthase (GCS) (Homo sapiens (Human))" result_type=pIC50 assay_result=5.47
molecule="Cc1nc2c(s1)CCCC2Nc1nc(C2CC2)nc(C)c1C#N (centres unmarked)" tgt="glucosylceramide synthase (GCS) (Homo sapiens (Human))" result_type=pIC50 assay_result=6.37

a = N#Cc1cnc(C2CC2)nc1OC[C@@H]1CCN(c2ccc(C(F)(F)F)nc2)C1
b = N#Cc1cnc(C2CC2)nc1OC[C@H]1CCN(c2ncc(C(F)(F)F)cn2)C1
(Q) Which value of pIC50 is numerically greater: that of a or that of b ? Returns: label corresponding to the selected item.
(A) b
(b: 7.21, a: 6.59)

A = N#Cc1cnc(C2CC2)nc1OCC1CCCN1Cc1ccccc1Cl (centres unmarked)
B = CCOc1ccc(N2CC[C@H](COc3nc(C4CC4)ncc3C#N)C2)cn1
C = OCc1c(Cl)nc(C2CC2)nc1N1CCc2nc(C3CC3)sc2C1
D = CC(C)N1C(=O)[C@]2(c3ccsc3)CN(c3nc(C4CC4)ncc3C#N)C[C@@H]2S1(=O)=O
E = N#Cc1cnc(C2CC2)nc1OC[C@H]1CCN(c2sccc2C#N)C1
(Q) Arrange these 5 molecules in increasing order of pIC50. Note for the reader: the ranking is given by listing the labels in the order requested.
(A) C, A, D, B, E
(C: 5.48, A: 5.88, D: 6.08, B: 6.64, E: 6.85)
